- Method summary: Apparent permeability across basolateral to apical side in MDCK cells
- Format: ADME, cell-based, Canis lupus familiaris
- Cond: dog
Measured quantity: Papp

CCC[C@@H](NC(=O)c1cccnc1OC)C(=O)N1CCC(CCN(CCOC)C2CCN(C)CC2)CC1 = 88 10^-6 cm/s

Entry C=CCOc1ccccc1CN(CC(=O)N1CCC(CC(=O)NC2CC2)CC1)C(C)C needs its Papp filled in; supply it. 57 10^-6 cm/s

Entry CCOc1ccccc1C(=O)N1CCN(Cc2ccccc2)C[C@@H]1C(=O)NC[C@H]1CCCCO1 needs its Papp filled in; supply it. 49 10^-6 cm/s

Entry CCOc1ccccc1C(=O)N1CCN(Cc2ccccc2)C[C@@H]1C(=O)NC[C@@H]1CCCCO1 needs its Papp filled in; supply it. 49 10^-6 cm/s

// data source = ChEMBL document CHEMBL6153082
